Items are presented alongside their recorded efflux ratio at 60 min, 0.5 μM.
- System: P-gp (human MDR1)
- Protocol Notes: in vitro
- Test Parameters: dog, MDCK-MDR1, pH 7.4
Metric: efflux ratio at 60 min, 0.5 μM

>>> print(df.to_string())
                                   molecule  reported
0  O=C(c1ccc(F)cc1)C1CCN(CCn2c(=S)[nH]c3ccccc3c2=O)CC1 [Altanserin]       1.1
1  CCN(CC)CCNC(=O)c1cc(Cl)c(N)cc1OC [Metoclopramide, metoclopramide]         2
2  CC(C)NCC(O)COc1cccc2ccccc12 (stereo not drawn) [Propranolol, propranolol]       0.8
